The following molecules are shown together with reported growth values.
Tested on: NCI-H23 lung
Assay: NCI-60 one-dose screen, 48 h (100 = growth as untreated, 0 = no growth, -100 = all killed)
Protocol conditions: 10 µM unless noted
Compounds without any hit were thinned out: in the full panel of roughly 83,000, 20% have a hit.
Readout kind: growth (%)

Molecule: Cc1cc(/C=C\c2ccc3ccccc3[n+]2C)c(O)c2ncccc12
Readout kind: growth
Unit abbreviation: %
Value measured: -4.98
//
Molecule: COc1ccc2[nH]c(O)c(C(=Nc3ccc(N(C)C(=O)CN4CCN(C)CC4)cc3)c3ccccc3)c2c1
Readout kind: growth
Unit abbreviation: %
Value measured: 21.2
//
Molecule: NC(N)=NN=C(c1ccccc1)c1ccccc1
Readout kind: growth
Unit abbreviation: %
Value measured: 17.8
//
Molecule: CC1=C([Se]CC(OC(=O)[C@@H](CO)NC(=O)OC(C)(C)C)C(=O)NC(C)(C)C)C(=O)c2ccccc2C1=O (stereo not given in full)
Readout kind: growth
Unit abbreviation: %
Value measured: -74.5
//
Molecule: N#Cc1c(N)nc(NCCO)nc1-c1ccc(F)cc1
Readout kind: growth
Unit abbreviation: %
Value measured: 96.7
//
Molecule: COc1ccc(-c2csc(C3=C(O)CN(CCCN4CCCC4=O)C3=N)n2)cc1OC
Readout kind: growth
Unit abbreviation: %
Value measured: 94.5
//
Molecule: CCc1ccccc1-n1c(-c2ccc(Cl)cc2)cc(-c2ccc(Cl)cc2)c(C#N)c1=O
Readout kind: growth
Unit abbreviation: %
Value measured: 94.2
//
Molecule: CN(C)c1ccc(-c2cc(-c3ccc(Nc4nc(Nc5ccc(Cl)cc5)nc(Nc5ccc(Cl)cc5)n4)cc3)no2)cc1
Readout kind: growth
Unit abbreviation: %
Value measured: 45
//
Molecule: C=C1C(=O)O[C@H]2[C@H]1CC/C(COC(=O)C(=O)c1c[nH]c3ccc(OC)cc13)=C\CC[C@@]1(C)O[C@@H]21
Readout kind: growth
Unit abbreviation: %
Value measured: -28.1
//
Molecule: CCN1C(=O)N(CC)C2Nn3c(s/c(=C\c4ccc(Cl)cc4Cl)c3=O)=NC21 (stereo not given)
Readout kind: growth
Unit abbreviation: %
Value measured: 43.1
//
Molecule: Cc1cc(Cl)ccc1Nc1nc(C(F)(F)F)ccc1C(=O)N/N=C/c1ccc(N(C)C)cc1
Readout kind: growth
Unit abbreviation: %
Value measured: 30.5
//
Molecule: C=CCSc1nc2ccccc2cc1/C=N/O
Readout kind: growth
Unit abbreviation: %
Value measured: 81.9
//
Molecule: CCCCCCN(CCCCCC)c1ccc(/C=C2/SC(=O)N(c3nc(N4CCCC4)nc(N4CCCC4)n3)C2=O)c(C)c1
Readout kind: growth
Unit abbreviation: %
Value measured: 47.2
//
Molecule: CCSC1=NC2C(N(CC)C(=O)N2CC)N1/N=C/C=C/c1ccccc1[N+](=O)[O-] (stereo not given)
Readout kind: growth
Unit abbreviation: %
Value measured: 21.9
//
Molecule: N/C(=N/N=C/c1ccccc1)N/N=C\c1ccccc1
Readout kind: growth
Unit abbreviation: %
Value measured: 66.6
//
Molecule: N#Cc1c2c(nn(-c3ccccc3)c1=O)C(O)=C([N+](=O)[O-])C(c1ccccc1)C2 (stereo not given)
Readout kind: growth
Unit abbreviation: %
Value measured: 86
//
Molecule: Cc1ccc(-c2cc3c(cc2O)C2CCCCC2(N2CCOCC2)O3)cc1 (stereo not given)
Readout kind: growth
Unit abbreviation: %
Value measured: 94.8
//
Molecule: Clc1cc(Cl)cc(Nc2ccc3cc(OCCCN4CCOCC4)ccc3n2)c1
Readout kind: growth
Unit abbreviation: %
Value measured: 37.6
//
Molecule: Cc1cccc(NC(=O)CSc2nc3ccccc3[nH]2)c1
Readout kind: growth
Unit abbreviation: %
Value measured: 94.6
//
Molecule: CC(C)(C)n1cc(-c2ccnc(NCCCNS(=O)(=O)c3ccccc3)c2)c(-c2ccccc2)n1
Readout kind: growth
Unit abbreviation: %
Value measured: 76.9

* * *

System: HCT-15 colon
Assay: NCI-60 one-dose screen, 48 h
Protocol conditions: 10 µM unless noted
Compounds without any hit were thinned out: in the full panel of roughly 83,000, 20% have a hit. Active and inactive are the calls of the source. Rule for the calls: active = growth percent below 10; inactive = the rest.
Outcomes: class 1 = active, class 0 = inactive

Compound: CN1C(=O)N(C)C2C1NN=c1s/c(=C\c3ccccc3)c(=O)n12 (centres undefined)
Group label: class 0

Compound: C=CCSc1nc2ccccc2cc1/C=N/O
Group label: class 0

Compound: COCCN(C(=O)c1ccc(F)cc1F)c1c(N)n(Cc2ccccc2)c(=O)[nH]c1=O
Group label: class 0

Compound: COC(=O)CCC1=C(C)C2=NC1=CC1=NC(=CC3=NC(=Cc4[nH]c(/c(=C(/C)O)c4C)=C2)C(C(C)=O)=C3C)C(C)=C1CCC(=O)OC
Group label: class 0

Compound: COc1cccc2c1C(=O)c1c(O)c3c(c(O)c1C2=O)CC(O)(/C(C)=N/NC(=O)CCCCC(=O)N/N=C(\C)C1(O)Cc2c(O)c4c(c(O)c2C(OC2CC(N)C(O)C(C)O2)C1)C(=O)c1c(OC)cccc1C4=O)CC3OC1CC(N)C(O)C(C)O1 (centres undefined)
Group label: class 0

Compound: Cc1cccc(-c2nc(N(C)c3ccc4ncsc4c3)c3ccccc3n2)n1
Group label: class 0

Compound: CCCCn1c(=O)c2c(nc(NCCc3ccc(O)c(O)c3)n2CCC)n(CCCC)c1=O
Group label: class 0

Compound: CSc1n(Cc2ccc3ccccc3c2)c(C)c[n+]1Cc1ccc2ccccc2c1
Group label: class 0

Compound: N#Cc1nc2c(S(=O)(=O)c3ccc(Cl)cc3)c(N)n(Nc3cccc(Cl)c3)c2nc1C#N
Group label: class 0

Compound: CCCCCCCC/C=C\CCCCCCCCOc1ccccc1CC(=O)NCC[N+](C)(C)C
Group label: class 0

Compound: COc1ccc(Nc2nnc(SCc3ccccc3F)s2)cc1
Group label: class 0

Compound: CCOP(=O)(OCC)C1CP(=O)(c2ccccc2)CC(C)=C1Cl (centres undefined)
Group label: class 0

Compound: Cc1nc2c(c(N3CCCc4ccccc43)n1)CCC2
Group label: class 1

Compound: COc1cc2nc(Cl)nc(Nc3ccc(S(=O)(=O)Nc4nccs4)cc3)c2cc1OC
Group label: class 0

Compound: COc1ccc(OC)c2c1[nH]c(=O)c1c3ncccc3cn21
Group label: class 0

Compound: O=C(c1ccccc1)c1c(/C=C/c2ccc(Cl)cc2)nc2ccccc2c1/C=C/c1cccs1
Group label: class 0

Compound: CN1CCN(CC(=O)Nc2nc(-c3cccc(NS(=O)(=O)c4cccc5c(N(C)C)cccc45)c3)cs2)CC1
Group label: class 0

Compound: O=C(CCc1nnc(CN(c2ccccc2)c2ccccc2)o1)c1nc2ccccc2[nH]1
Group label: class 0

Compound: CC/C=C\C[C@H](O)C/C=C1/C(=O)C=C[C@@H]1C/C=C\CCCC(=O)OC
Group label: class 1

* * *

Tested on: TK-10 renal
Assay: NCI-60 one-dose screen, 48 h
Protocol conditions: 10 µM unless noted
The panel holds about 83,000 compounds, 20% with a hit somewhere; the sample as a whole holds those more often. The source made the active and inactive calls. How the source made its calls: active means growth percent below 10; inactive means the rest.
Outcomes: active, inactive

Structure: CCCCNC(=O)Oc1ccc2c(=O)c3sc4c(=O)c5ccccc5c(=O)c4c3c(=O)c2c1
Assay system: TK-10 renal
Group label: active
//
Structure: COc1ccc2c(c1)O/C(=C/c1ccc(OCC(=O)c3ccccc3)cc1)C2=O
Assay system: TK-10 renal
Group label: inactive
//
Structure: C[C@@H]1N=C(c2ccc3ccccc3n2)Nc2nc3ccccn3c2C1=O
Assay system: TK-10 renal
Group label: inactive
//
Structure: COC(=O)c1c2c(c[n+]([O-])c1C)C(=O)C=CC2=O
Assay system: TK-10 renal
Group label: inactive
//
Structure: CN(C)c1ccc(-c2ccc3[nH]c(=O)nc(-c4ccccc4)c3c2)cn1
Assay system: TK-10 renal
Group label: inactive

* * *

Test system: IGROV1 ovarian
Assay: NCI-60 one-dose screen, 48 h
Protocol conditions: 10 µM unless noted
The panel holds about 83,000 compounds, 20% with a hit somewhere; the sample as a whole holds those more often. The source made the active and inactive calls. Rule for the calls: active = growth percent below 10; inactive = the rest.
Outcomes: class 1 (active), class 0 (inactive)

Compound: CS(=O)(=O)c1ccc(Nc2nc(N[C@H]3CCCC[C@H]3N)nc3cc[nH]c(=O)c23)cc1
Assay system: IGROV1 ovarian
Group label: class 1
--
Compound: Cc1cc[c-]cc1.Fc1c[c-]c(-c2ccccn2)c(F)c1.[Pt+2].c1ccc(P(C[PH+](c2ccccc2)c2ccccc2)c2ccccc2)cc1
Assay system: IGROV1 ovarian
Group label: class 0
--
Compound: COc1cc(-c2n/c(=C\c3c(O)[nH]c4ccc(Cl)cc34)cc3c2=Nc2ccccc2-3)cc(OC)c1OC
Assay system: IGROV1 ovarian
Group label: class 1
--
Compound: O=c1ssc(Cl)c1-c1ccccc1
Assay system: IGROV1 ovarian
Group label: class 0
--
Compound: CC(=O)[C@@H]1CC[C@]2(COS(=O)(=O)c3ccc(C)cc3)CC[C@]3(C)[C@H](CC[C@@H]4[C@@]5(C)CCCNC(C)(C)[C@@H]5CC[C@]43C)[C@@H]12
Assay system: IGROV1 ovarian
Group label: class 0
--
Compound: CCOc1c(C#N)nnc2c(C#N)c(NC(=O)c3ccccc3)nn12
Assay system: IGROV1 ovarian
Group label: class 0
--
Compound: CC1=C([Se]CC(OC(=O)CC[Se]c2ccccc2)C(=O)NCCCCCC(=O)OCc2ccccc2)C(=O)c2ccccc2C1=O (stereo not drawn)
Assay system: IGROV1 ovarian
Group label: class 0
--
Compound: O=C(c1ccccc1)c1c(/C=C/c2ccccc2)nc2ccccc2c1/C=C/c1ccc(Br)cc1
Assay system: IGROV1 ovarian
Group label: class 0
--
Compound: COc1cccc(-c2nn(-c3ccccc3)cc2-c2ccnc(NCCCNC(=O)c3ccccc3)c2)c1
Assay system: IGROV1 ovarian
Group label: class 0
--
Compound: c1ccc(Nc2nc(-c3ccccn3)cs2)nc1
Assay system: IGROV1 ovarian
Group label: class 1
--
Compound: Cc1c(C(=O)NC(Cc2ccccc2)C(O)C(=O)NCc2ccc(F)cc2)[nH]c2ccccc2c1=O (stereo not drawn)
Assay system: IGROV1 ovarian
Group label: class 0
--
Compound: CCC(CO)Nc1nc2ccc(Cl)cc2c2ccccc12 (stereo not drawn)
Assay system: IGROV1 ovarian
Group label: class 0
--
Compound: CCN1C(=O)N(CC)C2Nn3c(s/c(=C\c4cccc([N+](=O)[O-])c4)c3=O)=NC21 (stereo not drawn)
Assay system: IGROV1 ovarian
Group label: class 0
--
Compound: Cc1c(C)c2c(c(C)c1OCC(=O)O)CC[C@@](C)(CCC[C@@H](C)CCC[C@@H](C)CCCC(C)C)O2
Assay system: IGROV1 ovarian
Group label: class 1
--
Compound: COc1cc(Cn2ncc3ccc(NC(=O)c4cc5ccccc5oc4=N)cc32)cc(OC)c1OC
Assay system: IGROV1 ovarian
Group label: class 0
--
Compound: COc1cc(N=Nc2cc(Cc3ccc(N(C)C)cc3)c(N)cc2N(C)C)c2ncccc2c1
Assay system: IGROV1 ovarian
Group label: class 1
--
Compound: COc1cccc(-c2nn(-c3ccccc3)cc2-c2ccnc(NCCNC(=O)Nc3ccc(Cl)c(Cl)c3)c2)c1
Assay system: IGROV1 ovarian
Group label: class 0
--
Compound: CCN1CCN(c2cc(C)nc(NCc3cc(Nc4ccnc5cc(Cl)ccc45)ccc3F)n2)CC1
Assay system: IGROV1 ovarian
Group label: class 0
